- targetDesc: Urokinase-type plasminogen activator (Homo sapiens)
- assayProtocol: Inhibition of mouse uPA
- assayConditions: target entry is the homologue from another species
measureName: IC50 (nM)

compound: CC(=O)Nc1ccc(OP(=O)(Oc2ccc(NC(C)=O)cc2)C(Cc2ccc(N=C(N)N)cc2)NC(=O)[C@H](C)NC(=O)[C@@H](CO)NC(=O)OCc2ccccc2)cc1 (stereo partly specified)
measured: 410

###

- targetDesc: Urokinase-type plasminogen activator (Homo sapiens)
- assayProtocol: Inhibition of human uPA
pIC50: −log10 of the molar value.

molecule: C[C@H](NC(=O)[C@@H](CO)NC(=O)c1ccccc1)C(=O)NC(Cc1ccc(N=C(N)N)cc1)P(=O)(Oc1ccccc1)Oc1ccccc1 (stereo partly drawn)
pIC50: 8.30
--
molecule: CC(=O)Nc1ccc(OP(=O)(Oc2ccc(NC(C)=O)cc2)C(Cc2ccc(N=C(N)N)cc2)NC(=O)[C@H](C)NC(=O)[C@@H](CO)NC(=O)OCc2ccccc2)cc1 (stereo partly drawn)
pIC50: 8.17
--
molecule: COc1ccc(S(=O)(=O)N[C@H](CO)C(=O)N[C@@H](C)C(=O)NC(Cc2ccc(NC(=N)N)cc2)P(=O)(Oc2ccccc2)Oc2ccccc2)cc1 (stereo partly drawn)
pIC50: 8.24

###

- targetDesc: Coagulation factor X (Bos taurus, UniProt P00743)
- Sequence (P00743 41-180 limits assumed): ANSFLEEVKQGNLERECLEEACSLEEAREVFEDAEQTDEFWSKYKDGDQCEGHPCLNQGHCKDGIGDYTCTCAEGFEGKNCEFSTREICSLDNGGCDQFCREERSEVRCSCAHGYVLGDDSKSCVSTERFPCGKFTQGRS
- Sequence (P00743 234-492 limits assumed): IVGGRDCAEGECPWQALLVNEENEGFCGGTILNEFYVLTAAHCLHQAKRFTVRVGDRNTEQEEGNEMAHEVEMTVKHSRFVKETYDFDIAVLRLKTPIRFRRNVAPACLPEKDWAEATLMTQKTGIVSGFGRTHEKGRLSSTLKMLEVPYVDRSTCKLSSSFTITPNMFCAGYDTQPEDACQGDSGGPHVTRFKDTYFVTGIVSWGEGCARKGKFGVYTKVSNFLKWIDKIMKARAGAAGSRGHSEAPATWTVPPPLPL
- assayProtocol: Inhibition of bovine F10a
Returns: string. Value is Criterion met if measured IC50 is below 60 µM, and Criterion not met if it is greater than or equal to it.

compound: C[C@H](NC(=O)[C@@H](CO)NS(=O)(=O)Cc1ccccc1)C(=O)NC(Cc1ccc(NC(=N)N)cc1)P(=O)(Oc1ccccc1)Oc1ccccc1 (stereo not given in full)
className: Criterion met

compound: C[C@H](NC(=O)[C@@H](CO)NS(=O)(=O)c1cccc2ccccc12)C(=O)NC(Cc1ccc(N=C(N)N)cc1)P(=O)(Oc1ccccc1)Oc1ccccc1 (stereo not given in full)
className: Criterion not met

compound: COc1ccc(S(=O)(=O)N[C@H](CO)C(=O)N[C@@H](C)C(=O)NC(Cc2ccc(NC(=N)N)cc2)P(=O)(Oc2ccccc2)Oc2ccccc2)cc1 (stereo not given in full)
className: Criterion not met

compound: C[C@H](NC(=O)[C@@H](CO)NC(=O)OCc1ccccc1)C(=O)NC(CCCNC(=N)N)P(=O)(Oc1ccccc1)Oc1ccccc1 (stereo not given in full)
className: Criterion not met

compound: C[C@H](NC(=O)[C@@H](CO)NS(=O)(=O)c1ccc(Br)cc1)C(=O)NC(Cc1ccc(NC(=N)N)cc1)P(=O)(Oc1ccccc1)Oc1ccccc1 (stereo not given in full)
className: Criterion met

###

Parameter 'readout' = pIC50; parameter 'system' = Plasminogen (Homo sapiens).
Sequence (P00747 97-580 limits assumed): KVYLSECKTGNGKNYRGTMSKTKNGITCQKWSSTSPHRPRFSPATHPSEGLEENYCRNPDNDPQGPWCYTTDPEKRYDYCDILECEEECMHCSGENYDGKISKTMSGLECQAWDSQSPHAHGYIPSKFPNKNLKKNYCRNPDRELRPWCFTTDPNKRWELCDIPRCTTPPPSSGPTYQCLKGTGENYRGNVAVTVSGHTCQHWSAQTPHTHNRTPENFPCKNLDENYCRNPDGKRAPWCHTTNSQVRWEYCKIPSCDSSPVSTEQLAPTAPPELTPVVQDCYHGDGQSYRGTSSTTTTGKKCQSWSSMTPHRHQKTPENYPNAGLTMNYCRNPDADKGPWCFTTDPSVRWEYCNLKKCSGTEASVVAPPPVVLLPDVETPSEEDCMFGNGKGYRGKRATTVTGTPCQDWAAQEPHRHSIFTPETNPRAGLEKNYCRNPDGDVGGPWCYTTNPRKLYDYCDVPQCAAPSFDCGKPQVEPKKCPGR
Sequence (P00747 581-810 limits assumed): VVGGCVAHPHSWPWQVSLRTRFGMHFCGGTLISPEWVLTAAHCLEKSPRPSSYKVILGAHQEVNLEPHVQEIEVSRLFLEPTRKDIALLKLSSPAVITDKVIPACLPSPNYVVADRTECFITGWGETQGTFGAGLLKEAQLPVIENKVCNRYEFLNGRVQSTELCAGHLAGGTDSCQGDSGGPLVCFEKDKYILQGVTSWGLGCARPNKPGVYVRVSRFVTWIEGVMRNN
pIC50: −log10 of the molar value.
measureName: pIC50

molecule: C[C@H](NC(=O)[C@@H](CO)NS(=O)(=O)Cc1ccccc1)C(=O)NC(Cc1ccc(NC(=N)N)cc1)P(=O)(Oc1ccccc1)Oc1ccccc1 (stereo partly specified)
measureName: pIC50
measured: 7.43
--
molecule: C[C@H](NC(=O)[C@@H](CO)NC(=O)C1C2CC3CC(C2)CC1C3)C(=O)NC(Cc1ccc(NC(=N)N)cc1)P(=O)(Oc1ccccc1)Oc1ccccc1 (stereo partly specified)
measureName: pIC50
measured: 5.30
--
molecule: Cc1ccc(C(=O)N[C@H](CO)C(=O)N[C@@H](C)C(=O)NC(Cc2ccc(NC(=N)N)cc2)P(=O)(Oc2ccccc2)Oc2ccccc2)cc1 (stereo partly specified)
measureName: pIC50
measured: 5.30
--
molecule: CC(=O)Nc1ccc(OP(=O)(Oc2ccc(NC(C)=O)cc2)C(Cc2ccc(N=C(N)N)cc2)NC(=O)[C@H](C)NC(=O)[C@@H](CO)NC(=O)OCc2ccccc2)cc1 (stereo partly specified)
measureName: pIC50
measured: 6.05
--
molecule: C[C@H](NC(=O)[C@@H](CO)NC(=O)OCc1ccccc1)C(=O)NC(Cc1ccc(N=C(N)N)cc1)P(=O)(Oc1ccccc1)Oc1ccccc1 (stereo partly specified)
measureName: pIC50
measured: 5.70
--
molecule: C[C@H](NC(=O)[C@@H](CO)NS(=O)(=O)c1ccc(C#N)cc1)C(=O)NC(Cc1ccc(N=C(N)N)cc1)P(=O)(Oc1ccccc1)Oc1ccccc1 (stereo partly specified)
measureName: pIC50
measured: 6.05

###

- assayProtocol: Selectivity index, IC50 for bovine F10a/IC50 for human uPA
Mark t for Selectivity index under 9000, f if at or over.

compound: C[C@H](NC(=O)[C@@H](CO)NC(=O)OCc1ccccc1)C(=O)NC(CCCN=C(N)N)P(=O)(Oc1ccccc1)Oc1ccccc1 (stereo not given in full)
className: t

compound: C[C@H](NC(=O)[C@@H](CO)NS(=O)(=O)c1cccc2ccccc12)C(=O)NC(Cc1ccc(NC(=N)N)cc1)P(=O)(Oc1ccccc1)Oc1ccccc1 (stereo not given in full)
className: f

compound: C[C@H](NC(=O)[C@@H](CO)NS(=O)(=O)Cc1ccccc1)C(=O)NC(Cc1ccc(NC(=N)N)cc1)P(=O)(Oc1ccccc1)Oc1ccccc1 (stereo not given in full)
className: f

compound: COc1ccc(S(=O)(=O)N[C@H](CO)C(=O)N[C@@H](C)C(=O)NC(Cc2ccc(NC(=N)N)cc2)P(=O)(Oc2ccccc2)Oc2ccccc2)cc1 (stereo not given in full)
className: f

###

- Organism: Homo sapiens
- assayProtocol: Selectivity index, IC50 for human plasmin/IC50 for human uPA

compound: C[C@H](NC(=O)[C@@H](CO)NC(=O)OCc1ccccc1)C(=O)NC(CCCN=C(N)N)P(=O)(Oc1ccccc1)Oc1ccccc1 (stereo partly drawn)
Selectivity index: 300
--
compound: C[C@H](NC(=O)[C@@H](CO)NS(=O)(=O)c1ccccc1)C(=O)NC(Cc1ccc(NC(=N)N)cc1)P(=O)(Oc1ccccc1)Oc1ccccc1 (stereo partly drawn)
Selectivity index: 740
--
compound: C[C@H](NC(=O)[C@@H](CO)NS(=O)(=O)c1ccc(C#N)cc1)C(=O)NC(Cc1ccc(NC(=N)N)cc1)P(=O)(Oc1ccccc1)Oc1ccccc1 (stereo partly drawn)
Selectivity index: 145

###

Listing of recorded pIC50 by entry.
- targetDesc: Urokinase-type plasminogen activator (Homo sapiens, UniProt P00749)
- assayProtocol: Inhibition of human uPA
pIC50: −log10 of the molar value.

molecule: Cc1cccc(C(=O)N[C@H](CO)C(=O)N[C@@H](C)C(=O)NC(Cc2ccc(N=C(N)N)cc2)P(=O)(Oc2ccccc2)Oc2ccccc2)c1 (stereo partly specified)
targetDesc: Urokinase-type plasminogen activator (Homo sapiens, UniProt P00749)
pIC50: 8.36
//
molecule: C[C@H](NC(=O)[C@@H](CO)NS(=O)(=O)c1ccc(Br)cc1)C(=O)NC(Cc1ccc(NC(=N)N)cc1)P(=O)(Oc1ccccc1)Oc1ccccc1 (stereo partly specified)
targetDesc: Urokinase-type plasminogen activator (Homo sapiens, UniProt P00749)
pIC50: 8.18
//
molecule: C[C@H](NC(=O)[C@@H](CO)NS(=O)(=O)c1ccccc1)C(=O)NC(Cc1ccc(NC(=N)N)cc1)P(=O)(Oc1ccccc1)Oc1ccccc1 (stereo partly specified)
targetDesc: Urokinase-type plasminogen activator (Homo sapiens, UniProt P00749)
pIC50: 8.59
//
molecule: C[C@H](NC(=O)[C@@H](CO)NS(=O)(=O)c1cccs1)C(=O)NC(Cc1ccc(N=C(N)N)cc1)P(=O)(Oc1ccccc1)Oc1ccccc1 (stereo partly specified)
targetDesc: Urokinase-type plasminogen activator (Homo sapiens, UniProt P00749)
pIC50: 8.82
//
molecule: C[C@H](NC(=O)[C@@H](CO)NC(=O)C1C2CC3CC(C2)CC1C3)C(=O)NC(Cc1ccc(NC(=N)N)cc1)P(=O)(Oc1ccccc1)Oc1ccccc1 (stereo partly specified)
targetDesc: Urokinase-type plasminogen activator (Homo sapiens, UniProt P00749)
pIC50: 8.10
//
molecule: C[C@H](NC(=O)[C@@H](CO)NS(=O)(=O)Cc1ccccc1)C(=O)NC(Cc1ccc(NC(=N)N)cc1)P(=O)(Oc1ccccc1)Oc1ccccc1 (stereo partly specified)
targetDesc: Urokinase-type plasminogen activator (Homo sapiens, UniProt P00749)
pIC50: 8.46

Attribution: ChEMBL document CHEMBL1149362
